# System: 786-0
# procedure.text: NCI tumour cell line growth inhibition, 48 h
Activity calls are given as the source filed them. Cut-off read from the data, not from the text of the source: active = GI50 up to about 1.1 µM and inactive = higher.
property.measured: GI50

Solved cases (3 shown):
compound	GI50
COC(=O)[C@]1(c2cc3ccccc3n2S(=O)(=O)c2ccccc2)CC2CCC1NC2 (some centres undefined)	14.3 µM (inactive)
COc1cccc(Nc2nc(-c3cccs3)nc3ccc(Br)cc23)c1	33.3 µM (inactive)
C=C1C(=O)O[C@@H]2C[C@@H]3[C@]4(CC[C@]5(C)[C@@H]([C@H](C)CC/C=C(\C)C=O)CC[C@@]35C)C[C@]4(CCC(=O)OC)[C@H]12	1.71 µM (inactive)

From here, focus on the item given below.
Qu. Entry O=CC1C(Cl)=Nc2nc3ccccc3n2C1c1ccc([N+](=O)[O-])cc1 (centres undefined) , system 786-0: what GI50 was measured?
Ans. 4.3 µM (inactive)

----------
List of GI50 values.
# System: NCI-H23
# procedure.text: NCI tumour cell line growth inhibition, 48 h
Activity calls are given as the source filed them. No stated cut-off is given here; in the data, active = GI50 up to about 1.1 µM and inactive = higher.

Solved cases (5 shown):
compound	target.system	GI50
NC(Cc1nnn[nH]1)C(=O)O (stereo unspecified)	NCI-H23	> 100 µM (inactive)
COc1ccc(OCc2ccc3nc(-c4ccccc4)c(Cl)nc3c2)cc1	NCI-H23	19 µM (inactive)
Cc1cc2c(Br)cc(Br)c(O)c2nc1C(=O)c1ccccc1	NCI-H23	13.1 µM (inactive)
CC(C)CCNC(=O)c1ccc(CNC(=O)/C=C/c2ccc(OCc3ccccc3)cc2)cc1	NCI-H23	> 100 µM (inactive)
CC(=O)Nc1ccc(C(O)/C(=N/N)c2nc3ccc(Cl)cc3nc2O)cc1 (stereo unspecified)	NCI-H23	> 100 µM (inactive)

Qu. Recorded GI50 of CCOC(=O)/C(=N/Nc1ccccc1)N1C(=S)N(C)N=C(C)C=C1S , please.
Ans. 33.9 µM (inactive)

----------
# Test system: HCC 2998
# procedure.text: NCI tumour cell line growth inhibition, 48 h
Active and inactive are the calls of the source. No stated cut-off is given here; in the data, active = GI50 up to about 1.1 µM and inactive = higher.
Parameter call: string, one of 1.0 (active), 0.0 (inactive)

Known results for compounds:
compound	target.system	class.name
O=C(CCC=C(S(=O)(=O)c1ccccc1)S(=O)(=O)c1ccccc1)c1ccccc1	HCC 2998	0.0
CC(=O)Oc1cccc2c(/C=N/NC(N)=S)ncc(C)c12	HCC 2998	1.0
O=Cc1cccc2ccc3ccccc3c12	HCC 2998	0.0
O=C(/C=C/c1ccccc1)c1ccc(Cl)cc1Cl	HCC 2998	0.0
OC1CSCCSCCCSCCSC1	HCC 2998	0.0
CC(=O)N1OC(C)CC1Nc1ccc(Br)cc1 (configuration not stated)	HCC 2998	0.0

Qu. Would you mind telling me which call this test gave Cc1c(CCCl)c(N=P(c2ccccc2)(c2ccccc2)c2ccccc2)n2c(nc3ccccc32)c1C#N ?
Ans. 0.0

----------
# Tested on: OVCAR-5
# procedure.text: NCI tumour cell line growth inhibition, 48 h
Activity calls are given as the source filed them. Rule as the data show it: active = GI50 up to about 1.1 µM and inactive = higher.
property.measured: GI50

Solved cases (4 shown):
compound	val
c1ccc(CCN(Cc2nc3ccccc3[nH]2)Cc2nc3ccccc3[nH]2)cc1	23.8 µM (inactive)
C=C1CC(c2ccc(O)c(OC)c2)Oc2c(OC)cccc21 (stereo not given)	65.5 µM (inactive)
CN(CCNC(=O)c1nn(-c2ccc(Cl)cc2Cl)c2c1Cc1ccccc1-2)CCNC(=O)c1nn(-c2ccc(Cl)cc2Cl)c2c1Cc1ccccc1-2	20 µM (inactive)
CC(=O)OC1CC(n2cc(F)c(=O)[nH]c2=O)OC1CO (stereo not given)	> 46.7 µM (inactive)

Qu. Recorded GI50 of Cc1ccc(NC(=O)C(=O)C2C(=O)NC(=O)NC2=O)cc1C , please.
Ans. > 100 µM (inactive)
